EXPERIMENTAL_TARGET: NAMPT (Homo sapiens (Human), UniProt P43490)
Sequence (P43490 whole entry): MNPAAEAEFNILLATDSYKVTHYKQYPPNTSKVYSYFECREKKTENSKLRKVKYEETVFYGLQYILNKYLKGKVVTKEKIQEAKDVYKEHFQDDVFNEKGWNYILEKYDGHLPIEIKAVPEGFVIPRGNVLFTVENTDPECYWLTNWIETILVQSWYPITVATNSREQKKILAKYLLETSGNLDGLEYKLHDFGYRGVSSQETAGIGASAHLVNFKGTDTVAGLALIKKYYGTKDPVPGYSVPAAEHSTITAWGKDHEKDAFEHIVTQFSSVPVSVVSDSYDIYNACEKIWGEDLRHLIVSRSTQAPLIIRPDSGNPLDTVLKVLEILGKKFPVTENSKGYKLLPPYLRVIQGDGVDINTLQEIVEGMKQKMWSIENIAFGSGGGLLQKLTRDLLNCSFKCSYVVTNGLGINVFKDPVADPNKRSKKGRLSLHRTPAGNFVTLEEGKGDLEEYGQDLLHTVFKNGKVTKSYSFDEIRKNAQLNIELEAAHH
PROCEDURE_TEXT: Biochemical Inhibition Assay (NAMPT enzymatic reaction, NMN quantified by mass spectrometry)
EXPERIMENTAL_CONTEXT: 33 nM recombinant His-tagged NAMPT, 1 μM NAM, 30 min at rt
Just so you know, the groups by IC50 go like this: lower level = under 9 nM, middle level = from 9 nM up to 40 nM, upper level = 40 nM and over

O=C(NCc1ccc(S(=O)(=O)c2cccc(N3CCOCC3)c2)cn1)c1cnc2[nH]ncc2c1: upper level
CCS(=O)(=O)c1cccc(S(=O)(=O)c2ccc(CNC(=O)c3cnc4[nH]ncc4c3)nc2)c1: upper level
O=C(NCc1ccc(S(=O)(=O)c2ccc(N3CCOCC3)nc2)cn1)c1ccc2nccn2c1: lower level

Ask | For the record O=C(NCc1ccc(S(=O)(=O)c2ccc(N3CCOCC3)cc2)cn1)c1cc2ccncc2o1 , report the class its IC50 corresponds to.
Reply | lower level

Ask | Which band does O=C(NCc1ccc(S(=O)(=O)c2ccc(N3CCOCC3)cc2)cn1)c1cnc2[nH]ncc2c1 fall in?
Reply | middle level

Ask | Each compound maps to one class by IC50. Which class for CC(C)n1cc(S(=O)(=O)c2ccc(CNC(=O)c3ccc4nccn4c3)nc2)cn1 ?
Reply | middle level

----------
EXPERIMENTAL_TARGET: NAMPT (Homo sapiens (Human))
PROCEDURE_TEXT: Biochemical Inhibition Assay (NAMPT enzymatic reaction, NMN quantified by mass spectrometry)
EXPERIMENTAL_CONTEXT: 33 nM recombinant His-tagged NAMPT, 1 μM NAM, 30 min at rt
IC50 less than 20 nM is label 1; IC50 greater than or equal to 20 nM is label 0.

Illustrative cases are given below, each with its answer.
CN(C)c1ccc(S(=O)(=O)c2ccc(CNC(=O)c3cc4ccncc4o3)nc2)cn1: label 1
O=C(NCc1ccc(S(=O)(=O)N2CCCCC2)cn1)N1Cc2cn[nH]c2C1: label 0
O=C(NCc1ccc(S(=O)(=O)N2CCN(C3CCOCC3)CC2)cn1)N1Cc2ccncc2C1: label 0
O=C(NCc1ccc(S(=O)(=O)C2CCOCC2)cn1)c1cc2ccncc2o1: label 0

Ask | Strictly below 20 nM in IC50? CN1CCN(c2ccc(S(=O)(=O)c3ccc(CNC(=O)c4cnc5nccn5c4)nc3)cc2)CC1
Reply | label 1

Ask | Does O=C(NCc1ncc(S(=O)(=O)c2cccc(C(F)(F)F)c2)cn1)c1ccc2nccn2c1 have IC50 strictly under 20 nM?
Reply | label 1

Ask | Lab log: compare recorded IC50 with 20 nM; is it strictly lower for COc1cccc(S(=O)(=O)c2ccc(CNC(=O)c3cc4ccncc4o3)nc2)c1 ?
Reply | label 1

Ask | Determine if CCCn1cc(S(=O)(=O)c2ccc(CNC(=O)c3ccc4nccn4c3)nc2)cn1 shows IC50 strictly lower than 20 nM.
Reply | label 0

----------
EXPERIMENTAL_TARGET: NAMPT (Homo sapiens (Human))
PROCEDURE_TEXT: Biochemical Inhibition Assay (NAMPT enzymatic reaction, NMN quantified by mass spectrometry)
EXPERIMENTAL_CONTEXT: 33 nM recombinant His-tagged NAMPT, 1 μM NAM, 30 min at rt
READOUT_LABEL: pIC50
Here pIC50 is given on a logarithmic scale as minus log10 of the concentration in mol/L.

O=C(NCc1ccc(S(=O)(=O)c2ccc(N3CCOCC3)cc2)cn1)c1cc2ccncc2s1: 8.55

Ask | Which pIC50 value is on record for O=C(NCc1ncc(S(=O)(=O)c2ccccc2)cn1)c1cnc2nccn2c1 ?
Reply | 7.72

Ask | Fill in: pIC50 of O=C(NCc1ccc(S(=O)(=O)c2cncc(C(F)(F)F)c2)cn1)c1cc2ccncc2o1 is ___
Reply | 7.31

Ask | Can you look up the measured pIC50 of O=C(NCc1ccc([S+]([O-])c2cc(F)cc(F)c2)cn1)c1ccc2nccn2c1 (racemic) [Example 55] for me?
Reply | 7.80

Ask | Query: pIC50; subject: O=C(NCc1ccc(S(=O)(=O)c2cccc(OC(F)(F)F)c2)cn1)c1cc2ccncc2o1
Reply | 8.21

Ask | Value lookup for pIC50; key = O=C(NCc1ccc(S(=O)(=O)C2CCN(CC(F)(F)F)CC2)cn1)N1Cc2ccncc2C1
Reply | 6.95

Ask | So what's the measured pIC50 for this one? CN1CCN(c2ccc(S(=O)(=O)c3ccc(CNC(=O)c4cc5ccncc5o4)nc3)cn2)CC1
Reply | 7.74

Ask | Would you mind telling me what pIC50 value was observed for O=C(NCc1ccc(S(=O)(=O)C2CCN(CC(F)(F)F)CC2)cn1)c1ccc2nccn2c1 ?
Reply | 6.61

----------
Some compounds, each annotated with its measured pIC50.
EXPERIMENTAL_TARGET: NAMPT (Homo sapiens (Human), UniProt P43490)
PROCEDURE_TEXT: Biochemical Inhibition Assay (NAMPT enzymatic reaction, NMN quantified by mass spectrometry)
EXPERIMENTAL_CONTEXT: 33 nM recombinant His-tagged NAMPT, 1 μM NAM, 30 min at rt
Remember, pIC50 is on a log scale: it is -log10 of the molar concentration.

# count of solved cases: 2
O=C(NCc1ncc(S(=O)(=O)c2ccccc2)cn1)c1cnc2[nH]ncc2c1 [Example 6]: 6.97
O=C(NCc1ccc(S(=O)(=O)C2CCCCC2)cn1)N1Cc2ccncc2C1 [Example 59]: 7.56

Ask | // query pIC50 value for entry O=C(NCc1ccc(S(=O)(=O)c2cccc(C(F)(F)F)c2)cn1)c1cnc2nccn2c1 [Example 18]
Reply | 8.33

Ask | I have this compound here, O=C(NCc1ncc(S(=O)(=O)c2ccccc2)cn1)c1cc2ccncc2s1 [Example 187] , and I need its recorded pIC50.
Reply | 6.36

Ask | Given the entry O=C(NCc1ccc([S+]([O-])c2cccc(OC(F)(F)F)c2)cn1)c1cc2ccncc2o1 (racemic) [Example 90] , report its measured pIC50.
Reply | 7.79

Ask | For the compound shown here, O=C(NCc1ccc(S(=O)(=O)C2CCN(C3CCOC3)CC2)cn1)N1Cc2ccncc2C1 (centres unmarked) [Example 129] , give the reported pIC50.
Reply | 7.49

Ask | Quick one: pIC50 for O=C(NCc1ccc(S(=O)(=O)c2ccccc2)cn1)N1Cc2cn[nH]c2C1 [Example 178] ?
Reply | 5.70

----------
EXPERIMENTAL_TARGET: NAMPT (Homo sapiens (Human))
PROCEDURE_TEXT: Biochemical Inhibition Assay (NAMPT enzymatic reaction, NMN quantified by mass spectrometry)
EXPERIMENTAL_CONTEXT: 33 nM recombinant His-tagged NAMPT, 1 μM NAM, 30 min at rt
Documented IC50 across a set of compounds
Express the result in nM but write the number alone.

Solved cases (3 shown):
O=C(NCc1ccc([S+]([O-])c2cccc(C(F)(F)F)c2)cn1)c1cc2ccncc2o1 (racemic): 17.7
O=C(NCc1ccc([S+]([O-])c2cccc(OC(F)(F)F)c2)cn1)c1ccc2nccn2c1 (racemic): 31.5
O=C(NCc1ccc(S(=O)(=O)c2ccc(C(F)(F)F)nc2)cn1)c1cc2ccncc2o1: 20.5

Now look at this one.
Ask | Fill blank: measured IC50 of the compound CS(=O)(=O)c1cccc(S(=O)(=O)c2ccc(CNC(=O)c3cnc4[nH]ncc4c3)nc2)c1 is ____.
Reply | 16.8

----------
EXPERIMENTAL_TARGET: NAMPT (Homo sapiens (Human), UniProt P43490)
PROCEDURE_TEXT: Biochemical Inhibition Assay (NAMPT enzymatic reaction, NMN quantified by mass spectrometry)
EXPERIMENTAL_CONTEXT: 33 nM recombinant His-tagged NAMPT, 1 μM NAM, 30 min at rt
READOUT_LABEL: IC50 (µM)
Give just the numeric value; µM need not be written.

Example cases with answers are listed next.
CC(C)CN1CCC([S+]([O-])c2ccc(CNC(=O)c3cc4ccncc4o3)nc2)CC1 (racemic) [Example 102]: 0.0693
CS(=O)(=O)c1cccc(S(=O)(=O)c2ccc(CNC(=O)c3ccc4nccn4c3)nc2)c1 [Example 137]: 0.0568
O=C(NCc1ccc(S(=O)(=O)c2cccc(OC(F)(F)F)c2)cn1)c1cnc2nccn2c1 [Example 20]: 0.0034
Cc1ccc(S(=O)(=O)c2ccc(CNC(=O)c3cc4ccncc4s3)nc2)cn1 [Example 95]: 0.0377
O=C(NCc1ncc(S(=O)(=O)c2ccccc2)cn1)c1cc2cnccc2[nH]1 [Example 7]: 0.15

Ask | // returns reported IC50 for input O=C(NCc1ccc(S(=O)(=O)N2CCN(C3CCOCC3)CC2)cn1)c1cc2ccncc2o1 [Example 127]
Reply | 0.0492

Ask | Please give the measured IC50 for this molecule: O=C(NCc1ccc(S(=O)(=O)c2cncc(Cl)c2)cn1)c1cc2ccncc2o1 [Example 169]
Reply | 0.0664

Ask | What measured IC50 goes with COCC(=O)N1CCC(S(=O)(=O)c2ccc(CNC(=O)c3cc4ccncc4o3)nc2)CC1 [Example 122] ?
Reply | 0.103
